Source: PubChem BioAssay (NCATS)

test system: AS120; test: qHTS profiling for inhibitors of Plasmodium falciparum proliferation (AID 504749); further: nearly all actives have a fitted effect of over 60% in size; conditions: P. falciparum in erythrocytes, SYBR Green DNA, 72 h; series mostly up to 28.7 µM
Results filed as inconclusive are left out. The source made the active and inactive calls. The call rests on the fitted dose curve; in most records, active means well fitted inhibition curve with a large enough effect; inconclusive means small, poorly fitted or top-dose-only effect; inactive means flat fitted curve, though single readings scatter.
Parameter call: string, one of T = active, F = inactive

Study these solved cases before continuing.
C[N+]1(C)[C@@H]2CC[C@H]1CC(OC(=O)[C@@H](CO)c1ccccc1)C2 (some centres not stated): F
CC(C)(O)C1C2OC(=O)C1[C@]1(O)C[C@H]3O[C@]34C(=O)O[C@H]2[C@]14C (some centres not stated) (tested in a mixture with another compound): F
CCC(C)C1O[C@]2(C=CC1C)CC1CC(C/C=C(\C)[C@H](OC3CC(OC)C(O[C@H]4CC(OC)[C@@H](O)C(C)O4)C(C)O3)[C@@H](C)/C=C/C=C3\COC4C(O)C(C)=C[C@H](C(=O)O1)[C@@]34O)O2 (some centres not stated): T
CN(C)C(=O)Oc1cc(OC(=O)N(C)C)cc([C@@H](O)CNC(C)(C)C)c1: F
COc1cc(N)c(Cl)cc1C(=O)N[C@@H]1CN2CCC1CC2: F
C[C@@H]1O[C@H](O[C@@H]2C=C3CC[C@H]4[C@@H](CC[C@]5(C)[C@@H](c6ccc(=O)oc6)CC[C@]45O)[C@@]3(C)CC2)[C@@H](O)[C@H](O)[C@@H]1O: F
C[C@H]1CN(C2CCC(C#N)(c3ccc(F)cc3)CC2)CC[C@@]1(C(=O)O)c1ccccc1 (some centres not stated): F
CCN[C@]1(c2cccs2)CCCCC1=O: F

Exercise: For O=c1ccc2cc(O[C@H]3O[C@@H](CO)[C@@H](O)[C@@H](O)[C@@H]3O)c(O)cc2o1 , which call appears in the assay record?
Key: F

Exercise: Another molecule to look at: C[C@]12CC[C@H](OS(=O)(=O)O)CC1=CCC1C2CC[C@]2(C)C(=O)CC[C@@H]12 (some centres not stated)
Key: F

Exercise: Another molecule: C[N+]1([O-])[C@@H]2CC(OC(=O)[C@@H](CO)c3ccccc3)C[C@@H]1[C@H]1O[C@H]12 (some centres not stated)
Key: F

Exercise: Now give it for O=[As]O[As]=O (configuration not stated) too.
Key: T

----------
test: Primary qHTS for inhibitors of SARS-S pseudo-typed particle cell entry (AID 1479145); details: SARS-S pseudotyped particle cell entry, luciferase reporter; series mostly up to 57.1 µM; further: nearly all actives have a fitted effect of over 45% in size
Records with an inconclusive call do not appear. Calls of active or inactive are those of the source. The call rests on the fitted dose curve.
Give one outcome, nothing more. List: true = active, false = inactive

CCOc1ccc(Cc2cc([C@@]34OC[C@@](CO)(O3)[C@@H](O)[C@H](O)[C@H]4O)ccc2Cl)cc1: false

Exercise: Dear all, I need the recorded test outcome for CCOC(=O)CN[C@@H](C(=O)N1CC[C@H]1C(=O)NCc1ccc(/C(N)=N/O)cc1)C1CCCCC1 , thank you.
Key: false

Exercise: Queued: CC1=C(C(=O)OCCN(Cc2ccccc2)c2ccccc2)C(c2cccc([N+](=O)[O-])c2)C(P2(=O)OCC(C)(C)CO2)=C(C)N1 (stereo not drawn)
Key: false

Exercise: Try this compound too: Cc1cccc(C)c1NC(=O)C1CCCCN1C (stereo not drawn)
Key: false

Exercise: Query O=C(NNCS(=O)(=O)O)c1ccncc1 next
Key: false

Exercise: Now consider C[C@H]1[C@H](O)[C@@H](C)/C=C/C=C/CC/C=C/C=C/C=C/C=C/C(OC2O[C@H](C)[C@@H](O)[C@H](N)[C@@H]2O)CC2O[C@](O)(CC(O)C(O)CCC(O)CC(O)CC(O)CC(=O)O[C@H]1C)CC(O)C2C(=O)O (stereo partly drawn) .
Key: false

Exercise: Follow-up item: CC1(C)S[C@H]2[C@H](NC(=O)[C@@H](N)c3ccc(O)cc3)C(=O)N2[C@H]1C(=O)O
Key: false

Exercise: Also need COc1cc([C@@H]2c3cc4c(cc3C(O[C@@H]3O[C@@H]5CO[C@@H](c6cccs6)OC5[C@H](O)[C@H]3O)C3COC(=O)[C@@H]32)OCO4)cc(OC)c1O (stereo partly drawn) , thanks.
Key: true

----------
test: qHTS Assay for Lipid Storage Modulators (AID 1519); details: Drosophila S3 cells, BODIPY lipid droplet/cell ratio, laser cytometry; measured here: cell count channel max response; cells loaded with oleic acid
Records with an inconclusive call do not appear.
Reported Endpoint: max response (%)
// units = %; emit number, no label

Sample answers from the record:
CC(=O)OC1CC[C@@]2(C)C3CC[C@]4(C)C(=O)CCC4C3CC[C@H]2C1 (stereo not given in full): -8.94
CC1=C2CCC3C4CCC(=O)[C@@]4(C)CCC3[C@]2(C)CCC1=O (stereo not given in full): 5.35
N#Cc1ccc(CN2CC3(CCNCC3)C2)cc1: -8.82
Clc1ccc(CO[C@@H](Cn2ccnc2)c2ccc(Cl)cc2Cl)cc1: -18.5
O=C(O)CNCP(=O)(O)O: 16.5

Now look at this one.
Exercise: Quick check: max response of CNc1ccc(C(=O)CC(O)CCC(C)C2OC(=O)CC(O)CC(=O)CC(O)CC(O)CC(O)CC(O)CC3(O)CC(O)C(C(=O)OC)C(CC(O[C@@H]4OC(C)C(O)C(N)C4O)/C=C/C=C/C=C/C=C/C=C/C=C/C=C/C2C)O3)cc1 (stereo not given in full) ?
Key: 14.1

----------
Entries and their activity change, negative = inhibition
assay: Primary qHTS to identify inhibitors of SARS-CoV-2 cell entry (AID 1645846); conditions: SARS-CoV-2 pseudovirus cell entry assay, luminescence; at 57.1 µM (top of the series) unless noted; further: nearly all actives have a fitted effect of over 45% in size
Inconclusive results are not listed.
Give a bare numeral; the unit % is implied.

C[C@H]1Oc2cc(cnc2N)-c2c(nn(C)c2C#N)CN(C)C(=O)c2ccc(F)cc21: -7.26
CCN(CCCOc1ccc2c(Nc3cc(CC(=O)Nc4cccc(F)c4)[nH]n3)ncnc2c1)CCOP(=O)(O)O: -62.3

Exercise: Entry COc1cc(O)c(C(=O)Nc2nc(C(=O)NCCN(C(C)C)C(C)C)cs2)cc1OC : reported activity change, negative = inhibition = ?
Key: -17.9

Exercise: How about this compound: CCOc1cc(/C=C2/C(=O)N(c3ccccc3)N=C2C)cc(Cl)c1OCC(=O)OC
Key: -12.7

Exercise: Would you kindly repeat that for CN=C(NC)NCc1ccccc1 ?
Key: -12.2

----------
molecular target: Rap guanine nucleotide exchange factor 3 (Homo sapiens); assay: Counterscreen qHTS for antagonist of cAMP-regulated guanine nucleotide exchange factor 3 (EPAC1) (AID 1645888); conditions: Rap1B-BODIPY-GDP nucleotide exchange, fluorescence; series mostly up to 154 µM;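 further: fluorescence loss as bound BODIPY-GDP is released from Rap1B; % of control where 0% means no effect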
Inconclusive results are not listed. Activity calls are given as the source filed them. Calls follow the shape of the dose curve; as a rule, active = well fitted inhibition curve with a large enough effect; inconclusive = small, poorly fitted or top-dose-only effect; inactive = no such curve, though single readings can be large or run the other way.
Reported Endpoint: activity change, negative = inhibition

Cn1cccc1/C=C1/C(=O)NC(=O)N(Cc2ccc(F)cc2)C1=O: inactive
COc1ccc(-n2c(/C=C/c3ccc(O)c(O)c3)nc3ccccc3c2=O)cc1: inactive
COc1ccc(N2C(=O)/C(=C/C=C/c3ccccc3[N+](=O)[O-])C(=O)NC2=S)cc1: 15.6% [at 30.8 µM] (inactive)
Cn1cccc1/C=C1\C(=O)NC(=O)N(Cc2ccccc2Cl)C1=O: inactive
COc1cccc(-n2c(/C=C/c3ccc(O)c(O)c3)nc3ccccc3c2=O)c1: 2.65% [at 30.8 µM] (inactive)

Exercise: Which activity change, negative = inhibition value belongs to COc1cc2c(cc1OC)-c1c(OC)c(OC)cc3c1[C@H](C2)N(C)CC3 ?
Key: 10.1% [at 30.8 µM] (inactive)

----------
Listing: caspase-3 activation of selected compounds
test: Cellular Toxicity (caspase-3) Renal Proximal Tubule (AID 667); conditions: renal proximal tubule cells; at 91.7 µM (top of the series), primary cells freshly taken from rat, solvent-only wells 0%, staurosporine 100% unless noted;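 further: cells exposed to compound for 16 hours at 37 °C before detection; 0% = DMSO basal and 100% = 10 µM staurosporine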
Activity calls are given as the source filed them. Calls follow the shape of the dose curve; as a rule, active = well fitted activation curve with a large enough effect; inconclusive = small, poorly fitted or top-dose-only effect, or effect the other way; inactive = flat fitted curve, though single readings scatter.

Record excerpt, results attached:
C=C(Cl)Cl: 1.42% (inactive)
COC1=CC(=O)O[C@@H](/C=C/c2ccc3c(c2)OCO3)C1: -22.8% (inactive)
O=C(Cl)/C=C/C(=O)Cl: -3.63% (inactive)
O=C1C(Cl)=C(Cl)C(=O)C(Cl)=C1Cl: -16.1% (inactive)
O=NN(c1ccccc1)c1ccccc1: 1.42% (inactive)

Exercise: Look up caspase-3 activation: CCc1cccc(CC)c1N(COC)C(=O)CCl
Key: 1.3% (inactive)

Exercise: Likewise for CCCC(=O)Cl ?
Key: 6.16% (inactive)

Exercise: // query: CCCOC(=O)c1ccccc1C(=O)OCCC
Key: 0.709% (inactive)

Exercise: Also need Clc1cccc(C(Cl)(Cl)Cl)n1 , thanks.
Key: 4.49% (inactive)

Exercise: Cool, now ClC(Cl)=C(Cl)C(Cl)=C(Cl)Cl
Key: 5.5% (inactive)

Exercise: Now the same for O=[N+]([O-])c1ccc(Cl)c(Cl)c1
Key: 4.74% [at 91.7 µM] (inactive)

Exercise: Next: CCCCOCCOP(=O)(OCCOCCCC)OCCOCCCC
Key: -4.16% [at 91.7 µM] (inactive)

Exercise: What about this compound? CCCCCCCC(=O)Cl
Key: 8.29% (inactive)

Exercise: Entry to check: c1ccc(-c2ccccc2)cc1
Key: -8.06% (inactive)
